procedure summary: yeast display, Sf9 membrane polyspecificity reagent, FACS + sequencing; frameworks hold sequencing errors
measured quantity: polyreactivity (PSR sort gate)

QVQLVESGGGLVQAGGSLRLSCAASGFIFWRYAMGWYRQAPGKERELVAAITSGGRTNYADSVKGRFTISRDNAKNTVYLQMNSLKPEDTAVYYCAADRSWSPRAGWYDYWGQGTQVTVSS : high polyreactivity
QDQLVESGGGLFQAGGSLRLSCGASGFIFRWNAMGWSRQAPGKEREMVAAITRGGSTYYADSVKGRFSISRDNAKNTVYLQMNSLKPEDTAVYFCAAGYVYRGASGGYWGQGTQVTVSS : high polyreactivity
QVQLVESGGGLVQAGGSLRLSCAASGFIFVRYAMGWYRQAPGKERELVAAITRSGTSTYYADSVKGRFTISRDNAKTTVNLQMNSLKPEDTAVYYCAKEVRSRYGYWGQGTQVTVSS : high polyreactivity

----------
procedure summary: yeast display, Sf9 membrane polyspecificity reagent, FACS + sequencing; frameworks hold sequencing errors
measured quantity: polyreactivity (PSR sort gate)

QVQLVESGGGLVQAGGSLRLSCAASGFIFTYYVMGWYRQAPGKERELVATISISDGTTYADSVKGRFTISRDNAKNTVYLQMNSLKPEDTAVYYCAKYFTTYKYDYWGQGTQVTVSS : low polyreactivity
QVQLVESGGGLVQAGGSLRLSCAASGRTFYSYAMGWYRKAPGKERELVAAISASGGRTYYADSVKGRFTISRDNAKNTVYLQMNSLKPEDTAVYYCAAYPWYRMWGQGTQVTVSS : high polyreactivity
QVQLVESGGGLVQAGGSLRLSCAASGSTFGVYNMGWYRQAPGQESELVAAITKSGGSTYYADSVMGLFTISRDNAKNTVYLQMNSMNPEDTAVYYCNTDYGRYLYYRFGYLGQGTQVTVSS : low polyreactivity
QVQLVESGGGLVQAGGSLRLICAASGFIYSYYAMGWYRQAPGKERELVAVISGSGGGTYYAVSVKGRFRISRDNAKNTVYLQMNSLKPEDTAVYDFAARNSGGTTKYYYWGQGTQVTVSS : high polyreactivity

Provide reported polyreactivity (PSR sort gate) for each item, in the same order as listed.
1. QVQLVESGGGLVQAGRTLRLSCAASGSTFSVYGMVWYRQAPGKERELVAINIIGGSTYYADSVKGRFTISRDNAKYTVYLQMNSLKPEDTAVFYCAADSFPSEFDYWGQGTQVTVSS
2. QGQLVESGGCLVQEGGSLRLSCAASGRIFWYYTMGWYRQAPGKERELVATIRSGDRKNYADSVKGRFTISLDNAKNTVYLQMNSLKPDDTAVYYCAATRALVNTHRYYYWGQGTQVTVSS
3. QVQLVETGGGLVQAGGSLRLSCAPSGSIYYINAMGWYRQAPGKERELVAAIRSGGSTNYADSVKGLFTISRDNAKNTVYLQMNSLKPEDTAVYYCNARSRSYVPYYYWGQGTQVTVSS

Output:
1: low polyreactivity; 2: high polyreactivity; 3: high polyreactivity

Please give polyreactivity (PSR sort gate), item by item, for the list that follows.
1. QVQLVESGGGLVQAGGSLRISCAASGSTFGYNDMGWYRQAPGKERELVAAIDTGVSTNYADSVKGRFTISRDNAKNTVYLQMNSLKPEDTAVYYCAKSGSAYWHSGWSVGFDYWGQGTQVTVSS
2. QVQLVESGGGLAQAGGSLRLSCAASGRTFRRYAMGWYRQAPGKEREMVAAITSGGDTYYADSVKGRFTISRDNAKNTVYLQMNSLKPEDTAVYYCNAASVTRRTGIRAVDFDYWGQGTQVTVSS

Output:
1. low polyreactivity
2. high polyreactivity

Hey, quick one: what's polyreactivity (PSR sort gate) for each of these?
1. QVQLVESGGGLVQAGGPLRLSCAASGYLFSYYAMGWSRQAPGKERELVATIDWGGGSTYYADSVKGRFTISRDNANNTVYLQLNSLKPEDTAVYYCSKDYYINKYGYRYDSWGQGTQVTVSS
2. QVQLVESGGGLVQAGGSLRLSCAASGSTFPKYAMGWYRQAPGKERELVALITSSTGTTYYADSVKGRFTISRDNAKNTVYLQMNSLKPEDTAVYYCNARVRYREWGLYYWGQGTQVTVSS

Output:
low polyreactivity
high polyreactivity
